Would you mind telling me the reported relative content, Day 115 of each entry?
experiment: Oxidation of CLA methyl ester in open test tube, GLC composition; type: physicochemical; details: open test tube, 115 days, room temperature, free access to air
Hey, just send me the number, nothing else.

Problem: Tell me the measured relative content, Day 115 of CCCCC/C=C\C/C=C\CCCCCCCC(=O)O , please.
Solution: 0.03

Problem: Tell me the measured relative content, Day 115 of CCCCC/C=C\C=C/CCCCCCCCC(=O)O , please.
Solution: 0

Problem: Tell me the measured relative content, Day 115 of CCCCCCCC/C=C\CCCCCCCC(=O)O , please.
Solution: 3.19

Problem: Tell me the measured relative content, Day 115 of CCCCCCCCCCCCCCCC(=O)O , please.
Solution: 1027

Problem: Tell me the measured relative content, Day 115 of CCCCCCCC/C=C/CCCCCCCC(=O)O , please.
Solution: 0.33

Problem: Tell me the measured relative content, Day 115 of CCCCCC/C=C/C=C\CCCCCCCC(=O)O , please.
Solution: 0

Problem: Tell me the measured relative content, Day 115 of CCCCCC/C=C\CCCCCCCCCC(=O)O , please.
Solution: 0.10

Problem: Tell me the measured relative content, Day 115 of CCCCCC/C=C\C=C/CCCCCCCC(=O)O , please.
Solution: 0

Problem: Tell me the measured relative content, Day 115 of CCCCC/C=C\C=C\CCCCCCCCC(=O)O , please.
Solution: 0

====

Would you mind telling me the reported relative content, Day 0 of each entry?
assay: Oxidation of CLA methyl ester in open test tube, GLC composition; type: physicochemical; settings: CLA methyl ester sample before oxidation
Hey, just send me the number, nothing else.

Problem: Tell me the measured relative content, Day 0 of CCCCC/C=C\C=C\CCCCCCCCC(=O)O , please.
Solution: 7.63

Problem: Tell me the measured relative content, Day 0 of CCCCCC/C=C/C=C\CCCCCCCC(=O)O , please.
Solution: 7.68

Problem: Tell me the measured relative content, Day 0 of CCCCC/C=C\C/C=C\CCCCCCCC(=O)O , please.
Solution: 0.06

Problem: Tell me the measured relative content, Day 0 of CCCCCC/C=C\CCCCCCCCCC(=O)O , please.
Solution: 0.13

Problem: Tell me the measured relative content, Day 0 of CCCCCCCC/C=C\CCCCCCCC(=O)O , please.
Solution: 4.14

Problem: Tell me the measured relative content, Day 0 of CCCCC/C=C\C=C/CCCCCCCCC(=O)O , please.
Solution: 0.09

Problem: Tell me the measured relative content, Day 0 of CCCCCCCCCCCCCCCC(=O)O , please.
Solution: 1.36

Problem: Tell me the measured relative content, Day 0 of CCCCCC/C=C\C=C/CCCCCCCC(=O)O , please.
Solution: 0.11

Problem: Tell me the measured relative content, Day 0 of CCCCCCCC/C=C/CCCCCCCC(=O)O , please.
Solution: 0
